Origin of the recorded values: patent US7718645B2

# tested.system: Human full-length diacylglycerol:acylCoA acyltransferase 1 (DGAT-1) (Homo sapiens, UniProt O75907)
# Construct: Human full-length diacylglycerol:acylCoA acyltransferase 1 (DGAT-1) was expressed in Sf9 insect cells; made in house; host or cells: Sf9 insect cells (baculovirus)
# Sequence (O75907 whole entry): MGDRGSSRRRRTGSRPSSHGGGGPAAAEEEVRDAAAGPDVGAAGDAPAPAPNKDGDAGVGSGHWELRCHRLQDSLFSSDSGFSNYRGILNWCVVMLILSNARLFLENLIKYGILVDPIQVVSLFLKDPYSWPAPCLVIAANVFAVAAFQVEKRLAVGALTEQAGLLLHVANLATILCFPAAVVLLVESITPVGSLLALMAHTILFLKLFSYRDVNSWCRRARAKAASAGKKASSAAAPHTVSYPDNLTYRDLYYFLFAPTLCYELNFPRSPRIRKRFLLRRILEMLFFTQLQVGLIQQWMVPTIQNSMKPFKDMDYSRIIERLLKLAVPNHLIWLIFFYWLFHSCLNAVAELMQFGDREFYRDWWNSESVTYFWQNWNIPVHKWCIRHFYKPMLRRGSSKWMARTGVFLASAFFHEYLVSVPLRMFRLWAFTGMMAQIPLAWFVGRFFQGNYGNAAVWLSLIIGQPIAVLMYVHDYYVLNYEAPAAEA
# measurement.protocol: In vitro assay for DGAT-1 inhibition ([14C]decanoylCoA, Sf9 membrane fraction)
# Assay type: biochemical
# experimental.context: Examples 24-25 table; range of repeated assays; read-out: DGAT-1 IC50 Range
attribute.measured: IC50

Quick check: IC50 of C[C@@H]1CN(c2ccc([C@H]3CC[C@@H](CC(=O)O)CC3)c(F)c2)C(=O)c2c(N)ncnc2O1 ?
1.7 to 13.2 nM

Quick check: IC50 of C[C@@H]1CN(c2ccc([C@H]3CC[C@H](CC(=O)O)CC3)c(F)c2)C(=O)c2c(N)ncnc2O1 ?
10 to 17 nM

====

Kindly supply the reported IC50 values for the records listed here.
# tested.system: Human full-length diacylglycerol:acylCoA acyltransferase 1 (DGAT-1) (Homo sapiens)
# Construct: Human full-length diacylglycerol:acylCoA acyltransferase 1 (DGAT-1) was expressed in Sf9 insect cells; made in house; host or cells: Sf9 insect cells (baculovirus)
# measurement.protocol: In vitro assay for DGAT-1 inhibition ([14C]decanoylCoA, Sf9 membrane fraction)
# Assay type: biochemical
# experimental.context: Examples 17-23 table; range of repeated assays; read-out: DGAT-1 IC50 Range

Entry C[C@@H]1CN(c2ccc(C3CCC(CC(=O)O)CC3)c(F)c2)C(=O)c2c(N)ncnc2O1 (stereo partly shown) [Example 17] , system Human full-length diacylglycerol:acylCoA acyltransferase 1 (DGAT-1) (Homo sapiens): what IC50 was measured?
3 to 15.5 nM

Entry Cc1cc(N2CCOc3ncnc(N)c3C2=O)ccc1C1CCC(CC(=O)O)CC1 (stereo not shown) [Example 20] , system Human full-length diacylglycerol:acylCoA acyltransferase 1 (DGAT-1) (Homo sapiens): what IC50 was measured?
8.6 to 17.2 nM

Entry Nc1ncnc2c1C(=O)N(c1ccc(C3CCC(CC(=O)O)CC3)c(F)c1)CCO2 (stereo not shown) [Example 19] , system Human full-length diacylglycerol:acylCoA acyltransferase 1 (DGAT-1) (Homo sapiens): what IC50 was measured?
3 to 15.5 nM

Entry Cc1cc(N2C[C@@H](C)Oc3ncnc(N)c3C2=O)ccc1C1CCC(CC(=O)O)CC1 (stereo partly shown) [Example 21] , system Human full-length diacylglycerol:acylCoA acyltransferase 1 (DGAT-1) (Homo sapiens): what IC50 was measured?
6.1 to 37.4 nM

Entry C[C@@H]1CN(c2ccc(C3CCC(CC(=O)O)CC3)cc2F)C(=O)c2c(N)ncnc2O1 (stereo partly shown) [Example 22] , system Human full-length diacylglycerol:acylCoA acyltransferase 1 (DGAT-1) (Homo sapiens): what IC50 was measured?
27.9 to 34.5 nM

Entry Cc1cc(C2CCC(CC(=O)O)CC2)ccc1N1CCOc2ncnc(N)c2C1=O (stereo not shown) [Example 23] , system Human full-length diacylglycerol:acylCoA acyltransferase 1 (DGAT-1) (Homo sapiens): what IC50 was measured?
643 to 2270 nM

Entry Nc1ncnc2c1C(=O)N(c1ccc(C3CCC(CC(=O)O)CC3)c(Cl)c1)CCO2 (stereo not shown) [Example 18] , system Human full-length diacylglycerol:acylCoA acyltransferase 1 (DGAT-1) (Homo sapiens): what IC50 was measured?
4.4 to 6.9 nM
